- System: P. falciparum (NF54 strain, clone A149)
- test.details: In vitro 3H-hypoxanthine incorporation test with P. falciparum NF 54
- Type: cell-based, Plasmodium falciparum
- condition.context: NF 54, clone A149; six repeats; max. concentration 50 or 5 μg/ml
# IC50 P. falciparum NF54 strain annotations
Kindly format the answer as number then unit.

molecule	readout	observed.measurement
COc1c(-c2c(C)cc(OC)c3c(O)cccc23)ccc2c1C(C)NC(C)C2 (stereo not drawn)	IC50 P. falciparum NF54 strain	1.584 µg/mL

query: Bench note: what IC50 P. falciparum NF54 strain did `COc1cccc2c(-c3ccc4c(c3O)[C@@H](C)N[C@H](C)C4)c(C)cc(OC)c12` show?
result: 1.443 µg/mL

query: What IC50 P. falciparum NF54 strain value was documented for this molecule, `COc1cc(C)cc2c(-c3c(O)cc(O)c4c3C[C@@H](C)N[C@@H]4C)cc(-c3cc(-c4c(O)cc(O)c5c4C[C@@H](C)N[C@@H]5C)c4cc(C)cc(OC)c4c3O)c(O)c12` ?
result: 46.957 µg/mL
